Hello, the source for this data is patent US20220249679A1, in case you need it.

Entries and their pEC50 values follow.
# TARGET_ENTITY: T1, Human syndecan-1 (CD138) on the cell surface (human, UniProt P18827 23-310)
# T1 construct: Endogenous on H929, KMS-11 and RT112/84 cells or transfected into Expi293 cells; also called human CD138; hCD138
# T1 sequence: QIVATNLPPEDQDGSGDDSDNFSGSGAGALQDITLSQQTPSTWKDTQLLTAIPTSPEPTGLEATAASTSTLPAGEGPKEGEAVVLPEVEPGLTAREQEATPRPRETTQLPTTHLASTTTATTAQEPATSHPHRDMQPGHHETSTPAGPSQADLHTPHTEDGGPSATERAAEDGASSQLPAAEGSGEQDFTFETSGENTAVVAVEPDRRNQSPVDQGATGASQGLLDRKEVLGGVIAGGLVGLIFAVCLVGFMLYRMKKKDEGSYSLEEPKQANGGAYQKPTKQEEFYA
# TEST_METHOD_NOTES: FACS on RT-112 cells, four parameter fit
# log scale: pEC50 equals minus log10 of the concentration in mol/L

Some binders with recorded pEC50:
F6 cks-rep (hF6) (antibody, human IgG1, kappa, V domains shown, Humanized IgG1/kappa antibody; also called hF6 (no Fynomer)) VH: QVQLVQSGAEVVKPGASVKLSCKASGYTFTSYYLYWVKKAPGQGLDWIGEIYPRSGGTNINEKFLSRVTLTADTSTSTAYLELSSLTSEDTAVYYCTRSLLYWGQGTTLTVSS VL: DVVMTQTPLSLSVTPGQPASISCKSSQSLLASDGKTYLNWLLQRPGQSPKRLIYLVSKLDSGVPNRFSGSGSGTDFTLQISRVEAEDVGLYYCWQGAHFPFTFGSGTKLEIKR; 8.66
F6 ckf-rep (antibody, V domains shown, Humanized F12P16F6 expressed as whole antibody with human constant regions (kappa light chain)) VH: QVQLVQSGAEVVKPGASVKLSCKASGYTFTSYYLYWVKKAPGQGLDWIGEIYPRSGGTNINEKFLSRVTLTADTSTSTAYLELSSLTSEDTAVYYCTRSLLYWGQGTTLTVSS VL: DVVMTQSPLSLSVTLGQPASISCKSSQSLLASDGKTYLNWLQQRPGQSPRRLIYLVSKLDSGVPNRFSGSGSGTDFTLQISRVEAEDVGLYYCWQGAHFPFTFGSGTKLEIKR; 8.68
F6 f2kf-rep (antibody, V domains shown, Humanized F12P16F6 expressed as whole antibody with human constant regions (kappa light chain)) VH: QVQLQQSGAEVVKPGASVKLSCKASGYTFTSYYLYWVKKAPGQGLDWIGEIYPRSGGTNINEKFLSRVTITADESTSTVYMQLSSLTSEDSAVYYCTRSLLYWGQGTTLTVSS VL: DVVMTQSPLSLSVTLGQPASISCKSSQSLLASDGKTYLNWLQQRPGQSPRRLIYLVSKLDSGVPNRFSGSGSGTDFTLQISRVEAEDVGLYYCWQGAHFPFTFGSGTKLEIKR; 8.61

Shifting focus to the binder that follows.
Enquiry: State the recorded pEC50 for this entry: F6 f1kf-rep (antibody, V domains shown, Humanized F12P16F6 expressed as whole antibody with human constant regions (kappa light chain)) VH: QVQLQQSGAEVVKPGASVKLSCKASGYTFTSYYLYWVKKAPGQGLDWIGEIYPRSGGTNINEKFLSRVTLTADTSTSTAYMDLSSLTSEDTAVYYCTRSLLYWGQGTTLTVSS VL: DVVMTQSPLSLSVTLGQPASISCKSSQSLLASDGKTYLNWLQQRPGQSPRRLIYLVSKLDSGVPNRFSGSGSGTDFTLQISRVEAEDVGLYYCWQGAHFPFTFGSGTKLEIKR
Return: 8.71
